From: patent US20240174746A1

Molecular target: T1, human TMEM106B (human, UniProt Q9NUM4 2-274)
T1 construct: Full-length cDNA transiently transfected into HEK293 cells; also called huTMEM106B
Assay: flow cytometry, HEK293 cells transiently transfected with human TMEM106B
quantity-measured: fold-change in binding over parental HEK293 cells (fold)

{"binder": "TM-63 (antibody, V domains shown, Purified from mouse hybridoma) VH: QVQLQQPGAELVKFGASVKLSCKASGYTFTSFWMHWVKQRPGQGLEWIGNIDPSDSETHYSQKFKDKATLTVDRSSNTAYIQLSSLTSEDSAVYYCARSSNWDNFDYWGQGTTVTVSS VL: DIVMTQASPSVSVTPGESVSISCRSSQSLLHVNGNTYLYWFLQRPGRSPRLLIYRMSNLASGVPDRFSGSGSGTAFTLRISRVEAEDVGVYYCMQHLQYPFSFGSGTKLEMK", "result-value": 7.12}
{"binder": "TM-60 (antibody, V domains shown, Purified from mouse hybridoma) VH: QVQLQQSGPELVKPGASVKLSCKASGYTFTSYDINWVKQRPGQGLEWIGWIYPRDGNTQYIEKLKGKATLTVDTSSSTAYMELHSLTSEDSAVYFCARWIFYAMDYWGQGTSVTVSS VL: DVLMTQTPLSLPVSLGDQASISCRSSQSIVHGNGNTYLEWYLQKPGQSPKLLIYKVSNRFSGVPDRFSGSGSGTDFTLKISRVEAEDLGVYYCFQGSHLPYTFGGGTKLEIK", "result-value": 4.39}
{"binder": "TM-78 (antibody, V domains shown, Purified from mouse hybridoma) VH: QVQLQQPGAELVKPGASVKLSCKASGYTFTNHWMHWVRQRPGQGLEWIGNIDPSDSDTHYNHKFKDKATLIVDKSSSTAYLQLSSLTSEDSAVFYCARSRGGYYDYGEAMDYWGQGTSVTVSS VL: DIVMTQATPSIPVTPGESVSISCRSSKSLLHVNGNTYLFWFLQRPGQSPQLLIYRMSNLASGVPDRFSGSGSGTAFTLRISRVEAEDVGVYYCMQHLEYPFTFGSGTKLEIK", "result-value": 9.6}
